Reported Endpoint: melting point

Compound: COC(=O)c1cc(C=O)cn1C
melting point: 100 to 101 °C
--
Compound: O=C1C=Cc2ccccc2C1=O
melting point: 136 to 141 °C
--
Compound: C/C(=N\c1ccccc1)c1c(O)c2ccccc2n(-c2ccccc2)c1=O
melting point: 184 to 185 °C

Note: attention shifts to another entry.
Entry N#CCCNCC(=O)O , melting point reported as 188 to 193 °C

----------
Some compounds, each annotated with its measured melting point.

Smiles Data: Fc1c(F)c(F)c(P(CCP(c2c(F)c(F)c(F)c(F)c2F)c2c(F)c(F)c(F)c(F)c2F)c2c(F)c(F)c(F)c(F)c2F)c(F)c1F
melting point: 190 to 195 °C
--
Smiles Data: COc1ccc(-n2c(=S)[nH]c3ccccc3c2=O)cc1
melting point: 307 to 310 °C
--
Smiles Data: C=CCn1c(=S)[nH]c2ccccc2c1=O
melting point: 206 to 207 °C
--
Smiles Data: COc1cc(N)c(Cl)cc1C(=O)O
melting point: 206 to 210 °C
--
Smiles Data: O=C1C=CC(=O)N1c1ccc(Cc2ccc(N3C(=O)C=CC3=O)cc2)cc1
melting point: 155 to 159 °C

Entry COC(=O)c1sccc1N1C(=O)C=CC1=O , melting point reported as 130 to 131 °C

Entry CC(=O)C(=Cc1ccc(-c2cccc([N+](=O)[O-])c2)o1)C(C)=O , melting point reported as 153 to 154 °C

Entry CCOc1nc2ccccc2c(=O)n1CCO , melting point reported as 81 to 82 °C

----------
Some compounds, each annotated with its measured melting point.

Reference set (3 entries):
Smiles Data: O=C(O)c1c(F)cccc1I
melting point: 121 to 126 °C
--
Smiles Data: O=C(O)Cc1ccc(OCc2ccccc2)cc1
melting point: 123 to 124 °C
--
Smiles Data: O=C1c2ccccc2S(=O)(=O)N1Cl
melting point: 148 to 151 °C

Note: attention shifts to another entry.
Entry O=[N+]([O-])C=Cc1c(Cl)cccc1Cl , melting point reported as 62 to 66 °C

----------
Some compounds, each annotated with its measured melting point.

Reference set (5 entries):
Compound: OCc1nccs1
melting point: 62 to 64 °C

Compound: Cc1n[nH]c2c(=O)n(-c3ccc(Cl)cc3)c(C)nc12
melting point: 313 to 315 °C

Compound: NC(=S)c1ccc(Cl)cc1Cl
melting point: 135 to 136 °C

Compound: N#Cc1cccc(N2CCCC2)n1
melting point: 73 to 74 °C

Compound: O=Cc1ccccc1OCc1cccc(Cl)c1
melting point: 38 to 41 °C

Entry Cc1ccccc1C(=O)Cc1ccc(C(N)=O)cc1 , melting point reported as 187 to 188 °C

Entry CCOC(=O)/C(=N\Nc1ccc(Cl)cc1)C(=O)C(F)(F)F , melting point reported as 75 to 76 °C

Entry O=S(=O)(Cl)Cc1ccccc1F , melting point reported as 55 to 56 °C

Entry CN=C1SC(CC(=O)O)C(=O)N1C (stereo unspecified) , melting point reported as 157 to 159 °C

Entry O=C(CBr)c1ccc2c(c1)OCCCO2 , melting point reported as 78 to 80 °C

Entry N#Cc1ccc(N)c(F)c1 , melting point reported as 89 °C

----------
Reported Endpoint: melting point (°C)
All answers are understood in °C, so give the number only.

Compound: O=S(=O)(CF)c1ccccc1
melting point / °C: 53
--
Compound: Fc1cccc(-c2cccc(F)c2)c1
melting point / °C: 8
--
Compound: Cc1cc(C(=O)NNCc2ccccc2)no1
melting point / °C: 106
--
Compound: COc1ccc(C=CC(=O)OCCOc2ccc(C=CC(=O)c3ccccc3)cc2)cc1
melting point / °C: 142
--
Compound: Cc1c(C(=O)c2c[nH]n(C)c2=O)ccc(S(C)(=O)=O)c1C1=NOCC1
melting point / °C: 222

Entry COc1cc(OC)cc(C(C)=O)c1 , melting point reported as 40

Entry Cn1c(=O)c2c(ncn2CC(O)CO)n(C)c1=O (stereo unspecified) , melting point reported as 162

Entry NNc1c(F)cc(F)cc1F , melting point reported as 99

Entry C[C@H](O)[C@@H](N)C(=O)O , melting point reported as 274

Entry CCCCCCC#CC(=O)O , melting point reported as -8

Entry C#CCOc1cc(-n2nc3n(c2=O)CCCC3)c(Cl)cc1Cl , melting point reported as 168

Entry O=C(O)Cc1ccc(Cl)nc1 , melting point reported as 174

Entry CC#CCOS(=O)(=O)c1ccc(C)cc1 , melting point reported as 47.5

----------
Some molecules, each annotated with its measured melting point.
All answers are understood in °C, so give the number only.

Reference set (6 entries):
Molecule: CC(=O)Oc1cccc([N+](=O)[O-])c1
Test Result: 54
--
Molecule: O=C(NO)c1ccccc1
Test Result: 128
--
Molecule: Nc1c([N+](=O)[O-])ccc(Oc2ccccc2)c1Cl
Test Result: 81.5
--
Molecule: COc1ccc(-n2nc(C(=O)c3cccs3)s/c2=N/C(=O)c2ccccc2)cc1
Test Result: 235
--
Molecule: O=C1c2cccc([N+](=O)[O-])c2C(=O)c2cccc([N+](=O)[O-])c21
Test Result: 385
--
Molecule: COC(=O)c1cccc(C=O)c1
Test Result: 58

Note: attention shifts to another entry.
Entry S=c1sccs1 , melting point reported as 49

----------
Some compounds, each annotated with its measured melting point.

Reference set (3 entries):
Compound: CCOC(=O)CN(C)C(=O)c1nn(-c2ccccc2)nc1C
Test Result: 72 to 74 °C
//
Compound: CC(=O)NC1CCCCC(NC(C)=O)CCCC1 (configuration not stated)
Test Result: 296 to 297 °C
//
Compound: CCOC(=O)c1cc2c(=O)oc3ccccc3c2[nH]c1=O
Test Result: 313 to 315 °C

Entry Nc1ccnc(N)n1 , melting point reported as 143 to 148 °C

Entry CCCCCc1ccc(S(=O)(=O)Cl)cc1 , melting point reported as 42 to 44 °C

Entry Cc1cc(O)c(Cc2c(O)cc(C)oc2=O)c(=O)o1 , melting point reported as 248 to 250 °C

----------
Some compounds, each annotated with its measured melting point.
All answers are understood in °C, so give the number only.

Compound: CC1OC(n2cc(F)c(=O)[nH]c2=O)C(O)C1O (configuration not stated)
Unit Annotation: °C
melting point: 190
--
Compound: N#Cc1ccc(N)c(OC(F)(F)F)c1
Unit Annotation: °C
melting point: 72
--
Compound: Fc1cc(I)ccn1
Unit Annotation: °C
melting point: 58
--
Compound: CCCCOc1ccc(-c2nnc3sc(-c4ccc(Cl)c([N+](=O)[O-])c4)nn23)cc1
Unit Annotation: °C
melting point: 70
--
Compound: CC(C)CC1=C/C(=C/c2ccc(-c3cccc([N+](=O)[O-])c3)o2)C(=O)O1
Unit Annotation: °C
melting point: 164

Note: attention shifts to another entry.
Entry O=C1c2cccc(O)c2C(=O)c2cccc(O)c21 , melting point reported as 280

----------
Some molecules, each annotated with its measured melting point.

Reference set (2 entries):
Molecule: O=C(Cl)c1ccc(Oc2ccccn2)cc1
Reported Endpoint: melting point
Test Result: 80 to 81 °C
--
Molecule: OCc1ccc(-c2ccccc2)cc1
Reported Endpoint: melting point
Test Result: 101 to 105 °C

Entry CC(C)(C)OC(=O)N[C@@H](CO)c1ccccc1 , melting point reported as 136 to 139 °C

Entry Oc1ccc(O)c2ccccc12 , melting point reported as 188 to 192 °C

Entry Nc1ccc2c(c1)OCCCO2 , melting point reported as 81 to 82 °C

Entry COC(=O)c1sccc1NC(=O)CBr , melting point reported as 91 to 94 °C

----------
Some compounds, each annotated with its measured melting point.
All answers are understood in °C, so give the number only.

Compound: CCC(C)c1cccc(C(C)CC)c1O (stereo unspecified)
melting point (°C): -42
//
Compound: O=C(N(Cc1ccccc1)Cc1ccccc1)C(F)(F)C(F)(F)C(F)(F)C(F)(F)C(F)(F)C(F)(F)C(F)(F)C(F)(F)F
melting point (°C): 49
//
Compound: ON(c1ccccc1)C(Br)C(Br)c1ccccc1 (stereo unspecified)
melting point (°C): 125
//
Compound: COc1ccc(-c2cc(=O)c3c(O)c(OC)c(OC)cc3o2)cc1O
melting point (°C): 191
//
Compound: Cc1cc(C=O)ccc1O
melting point (°C): 119

Entry CC(=O)C(C#N)(CC(=O)c1ccccc1)c1ccccc1 (stereo unspecified) , melting point reported as 94

Entry NC(=O)/C(=N\Nc1c(Cl)cccc1Cl)c1nc2ccccc2s1 , melting point reported as 175

----------
Some compounds, each annotated with its measured melting point.

Reference set (5 entries):
Compound: Clc1nccc2occc12
melting point: 41 to 42 °C

Compound: Nc1ccc(Oc2ccc([N+](=O)[O-])cc2)cc1
melting point: 132 to 134 °C

Compound: CCC1CC(O)CC(C)(C)N1O (stereo not given)
melting point: 69 to 73 °C

Compound: COC(=O)c1scc(C#N)c1N
melting point: 149 to 150 °C

Compound: Cc1ccc(C)c(C#N)c1
melting point: 13 to 14 °C

Entry COC(=O)NNC(=O)OC , melting point reported as 129 to 131 °C

Entry CC(C)(C)OC(=O)N1CC[C@H]1C(=O)O , melting point reported as 105 to 110 °C

Entry CCC1C(=CC(=O)CI)N(C)C(C)(C)N1O (stereo not given) , melting point reported as 126 to 127 °C

Entry Cc1ncc(S(=O)(=O)C(C)(C)C)c(N)n1 , melting point reported as 163 to 166 °C

Entry CCOC(CNC(=O)C(N)=O)OCC , melting point reported as 138 to 140 °C

Entry COC(=O)c1ccc(CCl)cc1 , melting point reported as 40 °C

Entry CC(=O)OCC1OC=CC(OC(C)=O)C1OC(C)=O (stereo not given) , melting point reported as 54 °C
